- Species: Rattus norvegicus
- METHOD DESCRIPTION: DrugMatrix - Regimen: Daily Repeat
- Assay type: toxicity, organism-based, Sprague-Dawley
- Design: regimen Daily Repeat, gender Male, age 6-8 weeks
- CONDITION: in vivo, po, 0 mg/kg, 72 h, tissue Plasma, route oral GAVAGE, dose level Control, time 3 day, vehicle 100 % WATER
MEASUREMENT NAME: CHOLESTEROL (mg/dL)

> print(dat)
                                    molecule  unit.of.measure  recorded.value
 1  CCN(C(C)=O)c1cccc(-c2ccnc3c(C#N)cnn23)c1 [ZALEPLON]            mg/dL              69
 2  CN(C)CCC=C1c2ccccc2CCc2ccccc21 [AMITRIPTYLINE]            mg/dL              69
 3  CNC1=Nc2ccc(Cl)cc2C(c2ccccc2)=[N+]([O-])C1 [CHLORDIAZEPOXIDE]            mg/dL            72.5
 4              NC(=O)c1cccnc1 [NIACINAMIDE]            mg/dL           73.67
 5  CN(C)C(=O)Oc1cccc([N+](C)(C)C)c1.[Br-] [NEOSTIGMINE BROMIDE]            mg/dL           78.83
 6  CCN(CC)CCNC(=O)c1ccc(N)cc1 [PROCAINAMIDE]            mg/dL           77.67
 7        NC12CC3CC(CC(C3)C1)C2 [AMANTADINE]            mg/dL              69
 8  CCN(CC)CCOC(=O)C1(C2CCCCC2)CCCCC1 [DICYCLOMINE]            mg/dL           66.33
 9  O=c1[nH]c(=O)n(C2CCCO2)cc1F (stereo unspecified) [TEGAFUR]            mg/dL              76
10  C#Cc1cccc(Nc2ncnc3cc(OCCOC)c(OCCOC)cc23)c1 [ERLOTINIB]            mg/dL           79.83
11  CCCC(C)C1(CC)C(=O)NC(=O)NC1=O (stereo unspecified) [PENTOBARBITAL]            mg/dL           78.83
